- Tested on: DU-145 (Prostate Carcinoma)
- assay.comment: Bliss excess, mean over the matrix (fraction); higher = more synergy;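 note: after 72 h of two-drug dosing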
readout.label: Bliss excess

molecule | recorded.number
Cc1nc(Nc2ncc(C(=O)Nc3c(C)cccc3Cl)s2)cc(N2CCN(CCO)CC2)n1 [Dasatinib] + CC(=O)Nc1cccc(-n2c(=O)n(C3CC3)c(=O)c3c(Nc4ccc(I)cc4F)n(C)c(=O)c(C)c32)c1 [Trametinib] (first compound max 2 µM, 7x7, partner max 1 µM) | -0.0081
O=C(c1cc(Cc2n[nH]c(=O)c3ccccc23)ccc1F)N1CCN(C(=O)C2CC2)CC1 [Olaparib] + Cc1c2c(nn1C)CSCc1cc(n(C)n1)CSc1cc(c3ccccc3c1)OCCCc1c(C(=O)O)n(C)c3c-2c(Cl)ccc13 [AZD5991] (first compound max 10 µM, 7x7, partner max 1 µM) | -0.0348
COc1nnc2ccc(N3CCC(c4ccc(OCCN5CCN(C)C(=O)[C@H]5C)cc4)CC3)nn12 [AZD5153] + Cn1cnc2c(F)c(Nc3ccc(Br)cc3Cl)c(C(=O)NOCCO)cc21 [Selumetinib] (first compound max 1 µM, 7x7, partner max 10 µM) | 0.0192
COc1cccc(OCCCN)c1-c1cc(Nc2cnc(C#N)cn2)n[nH]1 [Prexasertib] + C=CCn1c(=O)c2cnc(Nc3ccc(N4CCN(C)CC4)cc3)nc2n1-c1cccc(C(C)(C)O)n1 [AZD1775] (first compound max 1 µM, partner max 1 µM) | 0.0361

====

A collection of compounds and their measured Bliss excess
- Tested on: EFO-21 (Ovarian Carcinoma)
- assay.comment: Bliss excess, mean over the matrix (fraction); higher = more synergy

compound | Bliss excess
COc1cccc(OCCCN)c1-c1cc(Nc2cnc(C#N)cn2)n[nH]1 [Prexasertib] + C=CCn1c(=O)c2cnc(Nc3ccc(N4CCN(C)CC4)cc3)nc2n1-c1cccc(C(C)(C)O)n1 [AZD1775] (first compound max 1 µM, partner max 1 µM) | -0.0075
NC1(C(=O)N[C@@H](CCO)c2ccc(Cl)cc2)CCN(c2ncnc3[nH]ccc23)CC1 [Capivasertib] + CC(=O)c1c(C)c2cnc(Nc3ccc(N4CCNCC4)cn3)nc2n(C2CCCC2)c1=O [Palbociclib] (first compound max 10 µM, 7x7, partner max 10 µM) | -0.0533
Cc1cc2ncnn2cc1Nc1ncc2c(n1)n(C1CCOCC1)c(=O)n2C [AZD7648] + CN(C)CCCOc1ccc(-c2ccc3ncc4c(c3c2)n(C2CCOCC2)c(=O)n4C)cn1 [AZD0156] (first compound max 10 µM, 7x7, partner max 1 µM) | -0.0063
C[C@@H](Nc1cc(F)cc(F)c1)c1cc(C(=O)N(C)C)cc2c(=O)cc(N3CCOCC3)oc12 [AZD8186] + C1CN(CCC1(C(=O)N[C@@H](CCO)C2=CC=C(C=C2)Cl)N)C3=NC=NC4=C3C=CN4 [AZD5363] (first compound max 10 µM, 7x7, partner max 10 µM) | -0.0376
CCN(CCO)CCCOc1ccc2c(Nc3cc(CC(=O)Nc4cccc(F)c4)[nH]n3)ncnc2c1 [AZD2811] + O=C(c1cc(Cc2n[nH]c(=O)c3ccccc23)ccc1F)N1CCN(C(=O)C2CC2)CC1 [Olaparib] (first compound max 1 µM, 7x7, partner max 10 µM) | -0.0409
C=CCn1c(=O)c2cnc(Nc3ccc(N4CCN(C)CC4)cc3)nc2n1-c1cccc(C(C)(C)O)n1 [AZD1775] + C1CN(CCC1(C(=O)N[C@@H](CCO)C2=CC=C(C=C2)Cl)N)C3=NC=NC4=C3C=CN4 [Capivasertib] (first compound max 3 µM, partner max 3 µM) | -0.0991
CCc1c2c(nc3ccc(O)cc13)-c1cc3c(c(=O)n1C2)COC(=O)[C@]3(O)CC [SN-38] + O=C(c1cc(Cc2n[nH]c(=O)c3ccccc23)ccc1F)N1CCN(C(=O)C2CC2)CC1 [Olaparib] (first compound max 0.3 µM, 7x7, partner max 10 µM) | 0.0601

====

- Tested on: DU-145 (Prostate Carcinoma)
- assay.comment: Bliss excess, mean over the matrix (fraction); higher = more synergy

compound | Bliss excess
CN(CCO)CC[C@H](CSc1ccccc1)Nc1ccc(S(=O)(=O)NC(=O)c2ccc(N3CCC([C@@H](O)c4ccccc4-c4ccc(Cl)cc4)CC3)cc2)cc1S(=O)(=O)C(F)(F)F [AZD4320] + Cc1cc2ncnn2cc1Nc1ncc2c(n1)n(C1CCOCC1)c(=O)n2C [AZD7648] (first compound max 1 µM, 7x7, partner max 10 µM) | -0.0355
CCN(CCO)CCCOc1ccc2c(Nc3cc(CC(=O)Nc4cccc(F)c4)[nH]n3)ncnc2c1 [AZD2811] + C=CCn1c(=O)c2cnc(Nc3ccc(N4CCN(C)CC4)cc3)nc2n1-c1cccc(C(C)(C)O)n1 [AZD1775] (first compound max 1 µM, partner max 1 µM) | -0.0116
CC1(C)CCC(CN2CCN(c3ccc(C(=O)NS(=O)(=O)c4ccc(NCC5CCOCC5)c([N+](=O)[O-])c4)c(Oc4cnc5[nH]ccc5c4)c3)CC2)=C(c2ccc(Cl)cc2)C1 [Venetoclax] + C=CCn1c(=O)c2cnc(Nc3ccc(N4CCN(C)CC4)cc3)nc2n1-c1cccc(C(C)(C)O)n1 [AZD1775] (first compound max 1 µM, partner max 1 µM) | -0.0098

====

- Test system: EJM (Plasma Cell Myeloma)
- assay.comment: Bliss excess, mean over the matrix (fraction); higher = more synergy
Listed molecules paired with reported Bliss excess

molecule | measured.target | Bliss excess
CN(CCO)CC[C@H](CSc1ccccc1)Nc1ccc(S(=O)(=O)NC(=O)c2ccc(N3CCC([C@@H](O)c4ccccc4-c4ccc(Cl)cc4)CC3)cc2)cc1S(=O)(=O)C(F)(F)F [AZD4320] + CN(C)CCCOc1ccc(-c2ccc3ncc4c(c3c2)n(C2CCOCC2)c(=O)n4C)cn1 [AZD0156] (first compound max 1 µM, 7x7, partner max 1 µM) | EJM (Plasma Cell Myeloma) | 0.0079
CCc1c2c(nc3ccc(O)cc13)-c1cc3c(c(=O)n1C2)COC(=O)[C@]3(O)CC [SN-38] + O=C(c1cc(Cc2n[nH]c(=O)c3ccccc23)ccc1F)N1CCN(C(=O)C2CC2)CC1 [Olaparib] (first compound max 0.3 µM, 7x7, partner max 10 µM) | EJM (Plasma Cell Myeloma) | 0.0404

====

- Test system: ALL-SIL (T-Lymphoblastic Leukemia)
- assay.comment: Bliss excess, mean over the matrix (fraction); higher = more synergy
Entries and their Bliss excess
readout.label: Bliss excess

compound | readout.label | recorded.number
COc1cccc(OCCCN)c1-c1cc(Nc2cnc(C#N)cn2)n[nH]1 [Prexasertib] + CCc1c2c(nc3ccc(O)cc13)-c1cc3c(c(=O)n1C2)COC(=O)[C@]3(O)CC [SN-38] (first compound max 1 µM, 7x7, partner max 0.3 µM) | Bliss excess | -0.0093
CC(=O)c1c(C)c2cnc(Nc3ccc(N4CCNCC4)cn3)nc2n(C2CCCC2)c1=O [Palbociclib] + CN(CC[C@H](CSC1=CC=CC=C1)NC2=C(C=C(C=C2)S(=O)(=O)NC(=O)C3=CC=C(C=C3)N4CCC(CC4)[C@H](C5=CC=CC=C5C6=CC=C(C=C6)Cl)O)S(=O)(=O)C(F)(F)F)CCO [AZD4320] (first compound max 10 µM, 7x7, partner max 1 µM) | Bliss excess | -0.0064
COc1cccc(OCCCN)c1-c1cc(Nc2cnc(C#N)cn2)n[nH]1 [Prexasertib] + CN(C)CCCOc1ccc(-c2ccc3ncc4c(c3c2)n(C2CCOCC2)c(=O)n4C)cn1 [AZD0156] (first compound max 1 µM, 7x7, partner max 1 µM) | Bliss excess | -0.0838
COc1nnc2ccc(N3CCC(c4ccc(OCCN5CCN(C)C(=O)[C@H]5C)cc4)CC3)nn12 [AZD5153] + Cn1cnc2c(F)c(Nc3ccc(Br)cc3Cl)c(C(=O)NOCCO)cc21 [Selumetinib] (first compound max 1 µM, 7x7, partner max 10 µM) | Bliss excess | -0.0303
CC1(C)CCC(CN2CCN(c3ccc(C(=O)NS(=O)(=O)c4ccc(NCC5CCOCC5)c([N+](=O)[O-])c4)c(Oc4cnc5[nH]ccc5c4)c3)CC2)=C(c2ccc(Cl)cc2)C1 [Venetoclax] + C1CN(CCC1(C(=O)N[C@@H](CCO)C2=CC=C(C=C2)Cl)N)C3=NC=NC4=C3C=CN4 [Capivasertib] (first compound max 1 µM, 7x7, partner max 3 µM) | Bliss excess | -0.0261
CN(CCO)CC[C@H](CSc1ccccc1)Nc1ccc(S(=O)(=O)NC(=O)c2ccc(N3CCC([C@@H](O)c4ccccc4-c4ccc(Cl)cc4)CC3)cc2)cc1S(=O)(=O)C(F)(F)F [AZD4320] + CN(C)CCCOc1ccc(-c2ccc3ncc4c(c3c2)n(C2CCOCC2)c(=O)n4C)cn1 [AZD0156] (first compound max 1 µM, 7x7, partner max 1 µM) | Bliss excess | 0.0035
CC1(C)CCC(CN2CCN(c3ccc(C(=O)NS(=O)(=O)c4ccc(NCC5CCOCC5)c([N+](=O)[O-])c4)c(Oc4cnc5[nH]ccc5c4)c3)CC2)=C(c2ccc(Cl)cc2)C1 [Venetoclax] + C[C@@H]1COCCN1C2=NC(=NC(=C2)C3(CC3)[S@](=N)(=O)C)C4=C5C=CNC5=NC=C4 [AZD6738] (first compound max 1 µM, 7x7, partner max 10 µM) | Bliss excess | -0.0217
